This collection of values is drawn from the supplement of paper PMC6555819.

In this section we review reported PBM binding z-score values for a set of sequences.
test system: RARb homodimer (NR concentration 270 nM); assay: PBM binding z-score (relative to random genomic background probes); higher = stronger binding; sequences stand for … in GC…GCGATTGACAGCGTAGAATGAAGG
quantityMeasured: PBM binding z-score

• CCTACTAGGTCATGGTCAGCTAATCTACAGTATG = 3.34
• CGAACTTGGTCAAGGACAGTGAATCTCCGCACGC = 0.692
• ATATGCAGGTTAAGGGTCATTCAGGTTGGTTCGC = 3.97
• TCATATCGGTAAAGGTGAAAGTCGAACGATATGA = 1.32
• TGATATAGGTAATACAGGTGAAAGTCGGCATCTA = 0.513
• CCGACTGGGGAAAAGGTTACCATACTCAGTACGA = 1.79
• ATCGAAAGGTCGAGGTGAGTACAGAGAAAGGGAA = 2.93
• ACAGCCAGGTGAGTGAAGGTAACTCAGCTGGACG = -0.424
• CGTCCCAGGTCAATGCTAGGTCAGTGAAAGCATT = 4.23
• TCATATAGGTAAAAGGTGACAGTCGGTGTGGTAA = 1.71
• ATCTCTAGGTAAAGATAGTTAAGTGAATGCAAAT = -0.639
• GCTCGGAGGAAAAGGTCAGAGCTTTGTCCGTAGA = 4
• CCGACTGGGGTAAGGTTACCATAACGCACAGCCA = 1.12
• TCATATAGGTAAACAGGTGAATGTCCGTAAGTTA = 0.605
• CCGACTGGGGCAGAAAGGTTACCACACCATCCGG = 2.28
• CCTATTAGTTGACCATTAGGGCAACCGAAGCTCG = 1.68
• CTTACTGGGCCATTCAGAGGTCATTGATCATATG = 4.12
• TAGCCTAGGTCATGCGGGCCAGTACAGTGTCGGC = 2.93
• ATCGAAAGGTCGTGAGGTGAGGATACAGAAAGGC = 3.16
• CAAACTAGCTCACGAAAGGTCAAAGTCGAATGAC = 4.81
• CCGAGTAGGTTATGGGGCATGCAGGCAACGGTGA = 1.15
• GCGACTGGGGTATCAGCAGGTTACCATAACTTAA = 0.852
• TCTGCTGGGTCAGTTGGTCAGCTAACGAGCTGCC = 2.12
• TCTTATAGATCAACAGGAGGTTAAGAAAGATCGA = 0.606
• CCTAGTGGGCCAAAAAGGTCATTGATGCCGATAA = 4.28
• TAGCTTAGGTCATGGGCCAGTATACCACGCGAAC = 3.13
• AGAACGAGGGCAATGAGTTGATAGTACGGGTGGC = 1.2
• ACTCGGAGGACAAAGGTCAGAGCAACGCCAGTGA = 4.24
• GGAACGAGGGCAAAGTTGATAACATCTGTCGACG = 1.21
• CGAACTAGGTCAGAACAGGAAAGTGAAGGATGAT = 1.61
• ACAGACAGGAGAGTGAAGGTAACTCAGCTGGACG = 0.0737
• CCGGCTAGGTCATGGTCAGCTAATCTACAGTATG = 3.33
• TCTCGTTGGTCAAAGGTCACACACTCGAAATGCG = 5.23
• TCTAGCAGGGCAGAGGGTCACTCAAGAGGTACGG = 2.89
• CCTTACGGGTCACTGACAGGTTAGAGCATTTGGA = 3.12
• CAAACTAGGTAAAGAGGTCAAAGTCCGCTTCCCG = 4.1
• TTACCAAGGTGAATGTCGTTGATCCCTCTGTAGA = 0.851
• GTACCAAGGTGAAGAGGTCGTTGATGAGTAGGCG = 2.46
• CGAACGAGGGCATCAGTTGATAGCAAATGCCGAT = 0.822
• TAGCCTAGGTCAGATCGGGCCCGTATACGCTATA = 1.94
• GCTTGTAGATCGAGGTTAAGAAAGACTAAGCTAA = 0.303
• AATACAGAGTCACTAGGCCAGAGTAGGTACGAAT = 0.0526
• AGAATGAGGTTATGCGTAGATCAGGGAAGAAAGT = 0.687
• CGAACGAGGGCATGCGTTGATAGCAAATGCCGAT = 0.766
• ATTGAAAGGTCGTGAGGTGAGTATACAGAAAGGC = 3.49
• TCTTGAAGATCAGCAGGTTAAGAAAGCTGGCCAA = -0.114
• CCTACTGGGCCATCAGGTCATTGAAATCAACGTT = 2.46
• AGAGACAGGTGAGTGAAGGTAACTCAGCTGGACG = 0.498
• GCGACTGGGGCATCAGCAGGTTAACATAACTTAA = 1.03
• GCGGCTGGGGCAAAGCAGGTTACCATAAGGTTGG = 1.19
• ACTACTAGTTGAGACGAGGGCAACCGATAGGTTG = 1.18

###

system: RXRa homodimer (NR concentration 180 nM); assay: PBM binding z-score (relative to random genomic background probes); higher = stronger binding; sequences stand for … in GC…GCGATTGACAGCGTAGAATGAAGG
Label yes (1) when PBM binding z-score is at or above -0.2; anything below gets no (0).

• TATACAGGGTCAAACGCCAGAGTACGAATGTCGA = yes (1)
• TGTCAAAGTTCAACGGTAACGTAAGTATCCACAC = yes (1)
• GTAACGAGGGCATTCGAGTTGATAGCATGGCGAT = yes (1)
• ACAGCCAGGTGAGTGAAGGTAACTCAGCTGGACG = yes (1)
• TCTGGTAGATCAACAGGAGGTTAAGAAAGATCGA = yes (1)
• CCTGCTAGGTCTTGGTCAGCTAATCTACAGTATG = no (0)

###

test system: LXRb homodimer (NR concentration 270 nM); test: PBM binding z-score (relative to random genomic background probes); higher = stronger binding; sequences stand for … in GC…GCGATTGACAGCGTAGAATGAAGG
quantityMeasured: PBM binding z-score

- CCTAGTTGGTCGAGGTCACACACGCTATAGGTAC: 0.632
- CCAGACAGGTGAAAGGTAACGCAGTCTGGTACGC: -0.326
- CGAACTAGGTTATTGACAGGACAGTGAATAGTAA: -0.0993
- GCTTGTAGATCAAGGTTACGAAAGACTAAGCTAA: -0.378
- TCATATAGGTAAACAGGTGAAAGTGCGTAAGTTA: 0.114
- AGAACGAGGGCAATGAGTTGATAGGACGGGTGGC: -0.468
- TGAATGAGGTTATAAGATGAGGGAACGTTGCAAA: 0.338
- CCTACTGGGCCATTCAGGGGTCATTGATCATATG: -0.118
- CGAACCAGGTCAAGGACAGTGAATCTCCGCACGC: -0.00984
- ATCTCTAGGTAAGGATAGTTCAGTGAATGCAAAT: 0.693
- ATATGTAGGTTATCGGGTCATTCCGTTTGCGCAT: 0.638
- GGAACGAGGGCAAAGTTGATAGAATCTGTCGACG: -0.45
- TCTTGTAGATCAAGAGAGGTTAAGAAAGTGCGCT: -0.672
- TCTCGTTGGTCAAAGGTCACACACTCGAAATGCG: 2.23

###

test system: PPARg DBDmut:RXRa IVT, anti-PPARg (DBD mutation: PPARg1 K132A/R137A, NR concentration 270 nM, RXRa partner concentration 90 nM); assay: PBM binding z-score (relative to random genomic background probes); higher = stronger binding; sequences stand for … in GC…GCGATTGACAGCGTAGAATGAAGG
quantityMeasured: PBM binding z-score

• GTACCAAGCTGAATAGGTCGTTGATGAGTAGGCG = -1.16
• CGAACTAGGTCATTGAAAGGACAGTGAATAGTAA = 2.22
• GCTTACGGGTCAAAGGTTATAGCTTGAATAGAAT = 1.28
• GCAGACAGGTGAAAGGCAGGTAACTCAGGGTGGC = -0.179
• GCGACCGGGGCAAAGCAGGTTACCATAAGGTTGG = -1.18
• TCGAGCAGGCCAGAGGGTCACTCAAGAGGTACGG = -0.384
• GCATATAGGTGATACAAGGTGAAAGTCCGATTGT = 0.633
• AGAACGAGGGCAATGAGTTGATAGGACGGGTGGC = 0.826
• AGAACGAGCGCAATGAGTTGATAGCACGGGTGGC = 0.051
• CAAACTAGGTCAAGGACAAAGTCGGTTTGTGCCA = 0.998
• CCTAGCAGGCCAATCAGGGTCACTCAAGGCTTGA = -0.834
• ACTTACGGGTCAACGAGGTTATAGAACGCGTATA = 1.71
• TCTTGCAGGCCAGAGGGTCACTCAAGAGGTACGG = 0.108
• GCAGACAGGTGAAACGCAGGTAACTCATGGTGGC = -0.609
• TCTTGTAGATCAAGCAGGTGAAGAAAGCCTGAGT = 0.265
• TCGAGTAGGTTAGTGGCATTCAGAATGGCGTCGA = -1.08
• CGTCCACGGTCAAAGGTCAGTGAAGAGATGACGG = -0.461
• CCTAGCACGCCAGGGTCACTCAAGCATTTCGCTT = -0.715
• CCAACTAGGTCACCGGAAGGTCAAAGTCCGCATG = 0.902
• AGTCAAAGTTCATCTAGGGAACGTAAGATATGCT = 1.05
• GCTAGTTGGACAGTAAAAGGTCACACACCGGTCG = -0.417
• ATCTCTAGGTAAGACTCAGGTCAGTGAAGAACGC = 0.483
• GCTTACGGGTCAAAGGGTATAGCATGAATAGAAT = 1.19
• TCTTGTAGATCAAAGGCTAAGAAAGCCGAAGCCT = 0.137
• TCAGACAGATGAAGGTAACTCAGGTACGCAGTCG = -0.273
• ACAAACAGGTGATGAAGGTAACTCAGGCTATCAT = 0.711
• ATCGAAAGCTCGAAGGTGAGTATACCCACCCGAA = 0.15
• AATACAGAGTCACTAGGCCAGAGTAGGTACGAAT = 1.31
• GCATATAGGTAATACAAGGTGATAGTCCGATTGT = 1.05
• CCTCCTGGGCCACGAAAGGTCATTGATTCAGTGA = -0.811
• TCAAGTAGGTTACCAATGGGGCATTCAGCTTTCT = 0.706
• ACTATTAGTTAAGACGAGGGCAACCGATAGGTTG = 0.81
• GCATATAGGTAATACAAGGAGAAAGTCCGATTGT = 0.451
• ATCGAAAGATCGAGGTGAGTATAGAGAAAGGGAA = 0.466
• ATCGAAAGGTCGGGAGGTGAGTATACAGAAAGGC = 2.2
• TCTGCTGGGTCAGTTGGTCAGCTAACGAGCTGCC = 0.569
• AGTCAAAGTTCAGGACGAGGTAGCGTAAAGCACG = -0.194
• TAGCCTAGGTCAGAACGGGCCAGTATACGCTATA = -0.735
• CTCGAAAGGTCGGTTGAGGTGAGTAGACGGATAA = -0.252
• GCTTGTAGATCAAGGTTGAGAAAGACTAAGCTAA = -0.562
• ATCTCTAGGTAATAGTTCAGTGAATCCCGAGGAT = 1.15
• CATACAGGGTCACCTAGGCCAGAGTAGGGACGGC = 1.86
• AGAATGAGGTTATACGGAGATCAGGGAAGAAAGT = 1.14
• ATATGTAGGTTAAGGGGCATTCAGGTTGGTTCGC = 2.3
• CCTTACGGGTCACCGACAGGTTATAGCATTTGGA = 0.292
• ACATGTAGGTTAGCTGGGGTCATTCAGACTAGGC = 2.39
• GCTGCTAGGTCAACTGATGGTCAGTTAAAGCTCG = -0.118
• CCGACTGGGGCAAAGGTTACTATACTCAGTACGA = -0.179
• CGTCAAAGTTCAAGGTAACGTCACAGAAAGCAGC = 1.5
• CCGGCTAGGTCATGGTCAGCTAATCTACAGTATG = -0.0629
• CCTAGCAGGCCAGGGTCCCTCAAGCATTTCGCTT = -1.5
